Tested on: S. cerevisiae Mot1-301 ts growth rescue, BacTiter-Glo ATP luminescence
MEASUREMENT PROTOCOL: restored Mot1-301 yeast growth at 38.5C – whole organism, S. cerevisiae, Mot1-301 ts mutant, luminescence, dose retest, SUMOylation pathway inhibitor project, confirmation (AID 463204);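 further: growth at restrictive 38.5 degrees C of Mot1-301 OY566 strain; actives raise luminescence by restoring growth of the ts mutant at high temperature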
Active and inactive are the calls of the source.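 How the source made its calls: active means AC50 no more than ten times the top concentration tested, that is within one log above it; inconclusive means flat curve fit with activity between 30% and 70%, or invalid poor fit; inactive means AC50 beyond ten times the top tested dose.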
Possible outcomes: 1.0 = active, 0.0 = inactive

COMPOUND | LABEL CLASS
CCCCn1c2nc3ccccc3nc2c2c(=O)n(CCC)cnc21 | 0.0
CCn1nccc1C(=O)Nc1ccccc1OC | 0.0
O=C(COc1ccc(F)cc1Cl)N(Cc1nnc(-c2ccccc2Cl)o1)C1CC1 | 0.0
Cc1ccc(S(=O)(=O)CCC(=O)OCC(=O)N(C)C2CCS(=O)(=O)C2)cc1 (stereo unspecified) | 0.0
COc1ccc(CCN2CC(C(=O)N(C)CC(=O)Nc3cccc(F)c3)CC2=O)cc1OC (stereo unspecified) | 0.0
CC1C(=O)CC(c2ccccc2)NC1c1ccccc1 (stereo unspecified) | 0.0
CNC(=O)NNC(=O)c1csc(-c2ccc(C(F)(F)F)cc2Cl)n1 | 0.0
Cc1ccc(/C=C/C(=O)c2ccc([N+](=O)[O-])o2)cc1 | 1.0
COc1ccccc1-c1sc2ccccc2c1-c1ccc2c(c1)OCO2 | 0.0
CC(C)N(C(=S)Nc1cccc(S(=O)(=O)N(C)C)c1)c1ccccc1 | 0.0
CC1(C)CC(=O)C=C(OC(=O)c2ccc(Cl)cc2)C1 | 0.0

---

System: S. cerevisiae Mot1-301 ts growth rescue, BacTiter-Glo ATP luminescence
MEASUREMENT PROTOCOL: restored Mot1-301 yeast growth at 38.5C – whole organism, S. cerevisiae, Mot1-301 ts mutant, luminescence, dose retest, SUMOylation pathway inhibitor project, confirmation (AID 463204);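 further: growth at restrictive 38.5 degrees C of Mot1-301 OY566 strain; actives raise luminescence by restoring growth of the ts mutant at high temperature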
The source made the active and inactive calls.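 Rule for the calls: active = AC50 no more than ten times the top concentration tested, that is within one log above it; inconclusive = flat curve fit with activity between 30% and 70%, or invalid poor fit; inactive = AC50 beyond ten times the top tested dose.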
Possible outcomes: active, inactive

COMPOUND | TARGET OR TEST SYSTEM | LABEL CLASS
COc1ccccc1CNC(=O)C(C)Sc1ccc(C)cc1 (stereo not given) | S. cerevisiae Mot1-301 ts growth rescue, BacTiter-Glo ATP luminescence | inactive
COc1ccc(S(=O)(=O)NCC(=O)N(CC(=O)NCc2ccco2)Cc2ccccc2)cc1 | S. cerevisiae Mot1-301 ts growth rescue, BacTiter-Glo ATP luminescence | inactive
O=C(NCc1ccccc1Cl)c1ccc2c(c1)OCO2 | S. cerevisiae Mot1-301 ts growth rescue, BacTiter-Glo ATP luminescence | active
COc1ccc(NC(=O)C2CCCN(C(=O)Nc3cccc(OC)c3)C2)cc1 (stereo not given) | S. cerevisiae Mot1-301 ts growth rescue, BacTiter-Glo ATP luminescence | inactive
CC(=O)N1c2ccc([N+](=O)[O-])cc2NC(=O)CC1C (stereo not given) | S. cerevisiae Mot1-301 ts growth rescue, BacTiter-Glo ATP luminescence | inactive
Nc1cc(=O)[nH]c(=O)n1CCc1ccccc1 | S. cerevisiae Mot1-301 ts growth rescue, BacTiter-Glo ATP luminescence | inactive
C=C1C2C[C@@]3([C@@H]1O)[C@@H](C[C@@H]2O)[C@@]12C4[C@@H]3C[C@@H]1[C@@](C)(CC[C@@H]2O)CN4CC | S. cerevisiae Mot1-301 ts growth rescue, BacTiter-Glo ATP luminescence | inactive
O=C(CN1CCN(c2nc(-c3ccccc3)cs2)CC1)NNC(=O)c1ccc(Br)cc1 | S. cerevisiae Mot1-301 ts growth rescue, BacTiter-Glo ATP luminescence | inactive
CN(C)c1ccc(NS(=O)(=O)c2cccc(Cl)c2)cc1 | S. cerevisiae Mot1-301 ts growth rescue, BacTiter-Glo ATP luminescence | inactive
Cc1c(NC(=O)c2ccc(N(C)S(C)(=O)=O)cc2)c(=O)n(-c2ccccc2)n1C | S. cerevisiae Mot1-301 ts growth rescue, BacTiter-Glo ATP luminescence | inactive
